Test system: NCI-H2009
assayMethodText: relative viability (nuclei count vs DMSO), 5 days (fraction); higher = more cells survive
settings: first compound 4 µM
Listed here are compounds together with their documented relative viability.
Output spec: single numeric token, no unit.

Guide cases for relative viability, answers given:
Prompt line: Which relative viability is listed for COc1cc(N2CCC(C(N)=O)CC2)ccc1Nc1nc(N)c(Cl)c(Nc2ccccc2S(=O)(=O)C(C)C)n1 [HG-5-88-01] + Nc1nc2[nH]cc(CCc3ccc(C(=O)N[C@@H](CCC(=O)O)C(=O)O)cc3)c2c(=O)[nH]1 [Pemetrexed] (partner 0.2 µM) ?
Response line: 0.975

Prompt line: And what about the compound COc1cc(N2CCC(C(N)=O)CC2)ccc1Nc1nc(N)c(Cl)c(Nc2ccccc2S(=O)(=O)C(C)C)n1 [HG-5-88-01] + CS(=O)(=O)N1CCN(Cc2cc3nc(-c4cccc5[nH]ncc45)nc(N4CCOCC4)c3s2)CC1 [Pictilisib] (partner 1 µM) ?
Response line: 0.631

Further cases:
Prompt line: Which relative viability is listed for Clc1ccc(Nc2nnc(Cc3ccncc3)c3ccccc23)cc1 [Vatalanib] + COc1cccc2cc(-c3nc([C@H]4CC[C@H](C(=O)O)CC4)n4ncnc(N)c34)[nH]c12 [OSI-027] (partner 0.5 µM) ?
Response line: 0.626

Prompt line: And what about the compound C[C@@H]1CN(CC(=O)Nc2ccc3c(c2)Cc2cccc(-c4cc(=O)cc(N5CCOCC5)o4)c2S3)C[C@H](C)O1 + Nc1ncn([C@H]2C[C@H](O)[C@@H](CO)O2)c(=O)n1 [Decitabine] (partner 2 µM) ?
Response line: 0.34

* * *

Tested on: HCC-44
assayMethodText: relative viability (nuclei count vs DMSO), 5 days (fraction); higher = more cells survive
settings: first compound 0.01 µM
propertyMeasured: relative viability
Output spec: single numeric token, no unit.

Guide cases for relative viability, answers given:
Prompt line: Which relative viability is listed for CC(C)Oc1cc(Nc2nc(N[C@@H](C)c3ccc(F)cn3)ncc2Cl)n[nH]1 [AZ23] + O=C(CCCCCCC(=O)Nc1ccccc1)NO [Vorinostat] (partner 1 µM) ?
Response line: 1.14

Prompt line: And what about the compound CC(C)Oc1cc(Nc2nc(N[C@@H](C)c3ccc(F)cn3)ncc2Cl)n[nH]1 [AZ23] + O=C(c1cc(Cc2n[nH]c(=O)c3ccccc23)ccc1F)N1CCN(C(=O)C2CC2)CC1 [Olaparib] (partner 8 µM) ?
Response line: 1.04

Could you now look at the following compound, please?
Prompt line: Which relative viability is listed for CC(C)Oc1cc(Nc2nc(N[C@@H](C)c3ccc(F)cn3)ncc2Cl)n[nH]1 [AZ23] + CCNC(=O)c1noc(-c2cc(C(C)C)c(O)cc2O)c1-c1ccc(CN2CCOCC2)cc1 [Luminespib] (partner 0.01 µM) ?
Response line: 0.863

* * *

System: SK-MES-1
assayMethodText: relative viability (nuclei count vs DMSO), 5 days (fraction); higher = more cells survive
settings: first compound 8 µM
Listed here are compounds together with their documented relative viability.
Output spec: single numeric token, no unit.

Prompt line: Which relative viability is listed for CCCCCCCCCCCC1=C(O)C(=O)C=C(O)C1=O [Embelin] + Nc1ncn([C@H]2C[C@H](O)[C@@H](CO)O2)c(=O)n1 [Decitabine] (partner 2 µM) ?
Response line: 0.266

Prompt line: And what about the compound CCCCCCCCCCCC1=C(O)C(=O)C=C(O)C1=O [Embelin] + CS(=O)(=O)CCNCc1ccc(-c2ccc3ncnc(Nc4ccc(OCc5cccc(F)c5)c(Cl)c4)c3c2)o1 [Lapatinib] (partner 2 µM) ?
Response line: 0.477

Prompt line: And what about the compound CCCCCCCCCCCC1=C(O)C(=O)C=C(O)C1=O [Embelin] + CC(=O)Nc1cccc(-n2c(=O)n(C3CC3)c(=O)c3c(Nc4ccc(I)cc4F)n(C)c(=O)c(C)c32)c1 [Trametinib] (partner 0.02 µM) ?
Response line: 0.518

Could you now look at the following compound, please?
Prompt line: Which relative viability is listed for CCCCCCCCCCCC1=C(O)C(=O)C=C(O)C1=O [Embelin] + CS(=O)(=O)N1CCN(Cc2cc3nc(-c4cccc5[nH]ncc45)nc(N4CCOCC4)c3s2)CC1 [Pictilisib] (partner 1 µM) ?
Response line: 0.359

* * *

Listed here are compounds together with their documented relative viability.
Test system: NCI-H596
assayMethodText: relative viability (nuclei count vs DMSO), 5 days (fraction); higher = more cells survive
settings: first compound 8 µM
Output spec: single numeric token, no unit.

Guide cases for relative viability, answers given:
Prompt line: Which relative viability is listed for CCCCCCCCCCCC1=C(O)C(=O)C=C(O)C1=O [Embelin] + Cc1nc(NC(=O)N2CCC[C@H]2C(N)=O)sc1-c1ccnc(C(C)(C)C(F)(F)F)c1 [Alpelisib] (partner 2 µM) ?
Response line: 0.581

Prompt line: And what about the compound CCCCCCCCCCCC1=C(O)C(=O)C=C(O)C1=O [Embelin] + C[C@]1(O)C[C@@H](c2nc(-c3ccc4ccc(-c5ccccc5)nc4c3)c3c(N)nccn32)C1 [Linsitinib] (partner 1 µM) ?
Response line: 1.05

Prompt line: And what about the compound CCCCCCCCCCCC1=C(O)C(=O)C=C(O)C1=O [Embelin] + COc1cc2c(Oc3ccc(NC(=O)C4(C(=O)Nc5ccc(F)cc5)CC4)cc3F)ccnc2cc1OCCCN1CCOCC1 [Foretinib] (partner 0.25 µM) ?
Response line: 0.764

Could you now look at the following compound, please?
Prompt line: Which relative viability is listed for CCCCCCCCCCCC1=C(O)C(=O)C=C(O)C1=O [Embelin] + Nc1ncn([C@H]2C[C@H](O)[C@@H](CO)O2)c(=O)n1 [Decitabine] (partner 2 µM) ?
Response line: 1.06

* * *

Test system: SW 900
assayMethodText: relative viability (nuclei count vs DMSO), 5 days (fraction); higher = more cells survive
settings: first compound 0.4 µM
Listed here are molecules together with their documented relative viability.
Output spec: single numeric token, no unit.

Prompt line: Which relative viability is listed for Clc1ccc(Nc2nnc(Cc3ccncc3)c3ccccc23)cc1 [Vatalanib] + Nc1nc2[nH]cc(CCc3ccc(C(=O)N[C@@H](CCC(=O)O)C(=O)O)cc3)c2c(=O)[nH]1 [Pemetrexed] (partner 0.2 µM) ?
Response line: 0.467

Prompt line: And what about the molecule COc1cc(N2CCC(C(N)=O)CC2)ccc1Nc1nc(N)c(Cl)c(Nc2ccccc2S(=O)(=O)C(C)C)n1 [HG-5-88-01] + O=C(c1cc(Cc2n[nH]c(=O)c3ccccc23)ccc1F)N1CCN(C(=O)C2CC2)CC1 [Olaparib] (partner 8 µM) ?
Response line: 0.867

Prompt line: And what about the molecule Clc1ccc(Nc2nnc(Cc3ccncc3)c3ccccc23)cc1 [Vatalanib] + Cc1cc(Nc2cc(N3CCN(C)CC3)nc(Sc3ccc(NC(=O)C4CC4)cc3)n2)n[nH]1 [Tozasertib] (partner 0.1 µM) ?
Response line: 0.68

Could you now look at the following molecule, please?
Prompt line: Which relative viability is listed for COc1cc(N2CCC(C(N)=O)CC2)ccc1Nc1nc(N)c(Cl)c(Nc2ccccc2S(=O)(=O)C(C)C)n1 [HG-5-88-01] + COc1cccc2cc(-c3nc([C@H]4CC[C@H](C(=O)O)CC4)n4ncnc(N)c34)[nH]c12 [OSI-027] (partner 0.5 µM) ?
Response line: 0.6

* * *

Test system: NCI-H1975
assayMethodText: relative viability (nuclei count vs DMSO), 5 days (fraction); higher = more cells survive
settings: first compound 1.265 µM
Sorting guide: entries reporting relative viability beneath 0.5 go in the met pile, the rest go in the not met pile.

Consider the following illustrative entries.
Prompt line: State whether 0.5 exceeds relative viability recorded for COc1cc(N2CCC(C(N)=O)CC2)ccc1Nc1nc(N)c(Cl)c(Nc2ccccc2S(=O)(=O)C(C)C)n1 [HG-5-88-01] + CS(=O)(=O)CCNCc1ccc(-c2ccc3ncnc(Nc4ccc(OCc5cccc(F)c5)c(Cl)c4)c3c2)o1 [Lapatinib] (partner 2 µM) .
Response line: not met

Prompt line: And what about the molecule Clc1ccc(Nc2nnc(Cc3ccncc3)c3ccccc23)cc1 [Vatalanib] + CS(=O)(=O)CCNCc1ccc(-c2ccc3ncnc(Nc4ccc(OCc5cccc(F)c5)c(Cl)c4)c3c2)o1 [Lapatinib] (partner 2 µM) ?
Response line: not met

Prompt line: And what about the molecule Clc1ccc(Nc2nnc(Cc3ccncc3)c3ccccc23)cc1 [Vatalanib] + N=C(N)NC(=N)NCCc1ccccc1 [Phenformin] (partner 250 µM) ?
Response line: met

Prompt line: And what about the molecule Clc1ccc(Nc2nnc(Cc3ccncc3)c3ccccc23)cc1 [Vatalanib] + Cc1cc(Nc2cc(N3CCN(C)CC3)nc(Sc3ccc(NC(=O)C4CC4)cc3)n2)n[nH]1 [Tozasertib] (partner 0.1 µM) ?
Response line: not met

Moving on to the next molecule.
Prompt line: State whether 0.5 exceeds relative viability recorded for COc1cc(N2CCC(C(N)=O)CC2)ccc1Nc1nc(N)c(Cl)c(Nc2ccccc2S(=O)(=O)C(C)C)n1 [HG-5-88-01] + CC(=O)Nc1cccc(-n2c(=O)n(C3CC3)c(=O)c3c(Nc4ccc(I)cc4F)n(C)c(=O)c(C)c32)c1 [Trametinib] (partner 0.02 µM) .
Response line: met
